Each recorded value in this set is attributed to patent US20110230504A1.

# tgt: mouse sEH (Mus musculus, UniProt P34914)
# Sequence (P34914 whole entry): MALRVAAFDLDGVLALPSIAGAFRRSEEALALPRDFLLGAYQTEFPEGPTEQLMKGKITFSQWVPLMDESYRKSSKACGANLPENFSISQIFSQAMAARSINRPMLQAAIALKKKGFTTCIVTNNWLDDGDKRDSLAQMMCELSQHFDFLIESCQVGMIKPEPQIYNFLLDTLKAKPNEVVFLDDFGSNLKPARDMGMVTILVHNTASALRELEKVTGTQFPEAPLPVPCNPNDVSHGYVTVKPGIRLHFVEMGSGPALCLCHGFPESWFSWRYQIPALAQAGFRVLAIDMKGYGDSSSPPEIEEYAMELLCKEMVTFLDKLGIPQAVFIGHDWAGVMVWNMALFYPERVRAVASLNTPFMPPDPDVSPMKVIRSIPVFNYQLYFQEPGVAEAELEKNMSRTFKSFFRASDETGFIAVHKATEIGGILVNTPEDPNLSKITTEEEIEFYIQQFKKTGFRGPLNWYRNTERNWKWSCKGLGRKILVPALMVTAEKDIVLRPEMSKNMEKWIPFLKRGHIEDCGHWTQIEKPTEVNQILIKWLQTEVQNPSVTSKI
# assay.explanation: biochemical
property.name: IC50

## Task Provide IC50 value for the following compound: CC(=O)N1CCC(NC(=O)Nc2ccc(OC(F)(F)F)cc2)CC1 [TPAU]
## Result 97 nM

---

# Tested on: rats
# assay.explanation: Thermal withdrawal latency, intraplantar LPS inflammatory pain model and non-inflamed controls
# Assay type: in vivo, rat
# test.conditions: control rats, i.pl. saline
property.name: thermal withdrawal latency in the absence of inflammation

CC(=O)N1CCC(NC(=O)Nc2ccc(OC(F)(F)F)cc2)CC1: no effect
CC(C)(C)NC(=O)[C@H]1CC[C@H]2[C@@H]3CC[C@H]4NC(=O)C=C[C@]4(C)[C@H]3CC[C@]12C [finasteride]: failed to alter
CCC1(c2ccc(N)cc2)CCC(=O)NC1=O (stereo not shown) [aminoglutethimide]: failed to alter
CCOCCOCCOCCCCCNC(=O)NC12CC3CC(CC(C3)C1)C2: no effect
